For each entry below, report its MIC value.
- Test system: clinical isolate of Klebsiella pneumoniae
- experiment_notes: Antibiotic susceptibility test (AST), MIC calling by automated microscopy imaging of microbial biomass in a 336-well AST-disc
- Type: cell-based
- test_settings: Klebsiella pneumoniae, 5.5 h, replicate #2; K. pneumoniae recovered from spiked positive blood culture flask, adjusted to 5x10^5 CFU/ml in CAMBH, 35° C., up to 5.5 hours total AST time
Numeric only. Scale: µg/mL

Notebook entry, clinical isolate of Klebsiella pneumoniae assay: MIC of `CO[C@@]1(NC(=O)Cc2cccs2)C(=O)N2C(C(=O)O)=C(COC(N)=O)CS[C@@H]21` = ? 4

Notebook entry, clinical isolate of Klebsiella pneumoniae assay: MIC of `C[C@@H](O)[C@H]1C(=O)N2C(C(=O)O)=C(S[C@@H]3CN[C@H](C(=O)Nc4cccc(C(=O)O)c4)C3)[C@H](C)[C@H]12` = ? 0.0312

Notebook entry, clinical isolate of Klebsiella pneumoniae assay: MIC of `NCC[C@H](O)C(=O)N[C@@H]1C[C@H](N)[C@@H](O[C@H]2O[C@H](CN)[C@@H](O)[C@H](O)[C@H]2O)[C@H](O)[C@H]1O[C@H]1O[C@H](CO)[C@@H](O)[C@H](N)[C@H]1O` = ? 2

Notebook entry, clinical isolate of Klebsiella pneumoniae assay: MIC of `C[C@H]1COc2c(N3CCN(C)CC3)c(F)cc3c(=O)c(C(=O)O)cn1c23` = ? 0.5

Notebook entry, clinical isolate of Klebsiella pneumoniae assay: MIC of `NC[C@H]1O[C@H](O[C@H]2[C@H](O)[C@@H](O[C@H]3O[C@H](CO)[C@@H](O)[C@H](N)[C@H]3O)[C@H](N)C[C@@H]2N)[C@H](N)C[C@@H]1O` = ? 2

* * *

For each entry below, report its MIC value.
- Tested on: clinical isolate of Klebsiella pneumoniae
- experiment_notes: Antibiotic susceptibility test (AST), MIC calling by automated microscopy imaging of microbial biomass in a 336-well AST-disc
- Format: cell-based
- test_settings: Klebsiella pneumoniae, 5.5 h, replicate #3; K. pneumoniae recovered from spiked positive blood culture flask, adjusted to 5x10^5 CFU/ml in CAMBH, 35° C., up to 5.5 hours total AST time

Notebook entry, clinical isolate of Klebsiella pneumoniae assay: MIC of `C[C@H]1COc2c(N3CCN(C)CC3)c(F)cc3c(=O)c(C(=O)O)cn1c23` = ? 0.5 µg/mL

Notebook entry, clinical isolate of Klebsiella pneumoniae assay: MIC of `C[C@@H](O)[C@H]1C(=O)N2C(C(=O)O)=C(S[C@@H]3CN[C@H](C(=O)Nc4cccc(C(=O)O)c4)C3)[C@H](C)[C@H]12` = ? ≤ 0.0156 µg/mL

Notebook entry, clinical isolate of Klebsiella pneumoniae assay: MIC of `C[C@@H](O)[C@H]1C(=O)N2C(C(=O)O)=C(S[C@@H]3CN[C@H](C(=O)N(C)C)C3)[C@H](C)[C@H]12` = ? ≤ 0.0625 µg/mL

Notebook entry, clinical isolate of Klebsiella pneumoniae assay: MIC of `NC[C@H]1O[C@H](O[C@H]2[C@H](O)[C@@H](O[C@H]3O[C@H](CO)[C@@H](O)[C@H](N)[C@H]3O)[C@H](N)C[C@@H]2N)[C@H](N)C[C@@H]1O` = ? 2 µg/mL

Notebook entry, clinical isolate of Klebsiella pneumoniae assay: MIC of `CO[C@@]1(NC(=O)Cc2cccs2)C(=O)N2C(C(=O)O)=C(COC(N)=O)CS[C@@H]21` = ? 2 µg/mL

Notebook entry, clinical isolate of Klebsiella pneumoniae assay: MIC of `NCC[C@H](O)C(=O)N[C@@H]1C[C@H](N)[C@@H](O[C@H]2O[C@H](CN)[C@@H](O)[C@H](O)[C@H]2O)[C@H](O)[C@H]1O[C@H]1O[C@H](CO)[C@@H](O)[C@H](N)[C@H]1O` = ? 1 µg/mL

Notebook entry, clinical isolate of Klebsiella pneumoniae assay: MIC of `CO/N=C(\C(=O)N[C@@H]1C(=O)N2C(C(=O)O)=C(CSc3nc(=O)c(=O)[nH]n3C)CS[C@H]12)c1csc(N)n1` = ? > 8 µg/mL

Notebook entry, clinical isolate of Klebsiella pneumoniae assay: MIC of `CC(C)(O/N=C(\C(=O)N[C@@H]1C(=O)N2C(C(=O)[O-])=C(C[n+]3ccccc3)CS[C@H]12)c1csc(N)n1)C(=O)O` = ? ≤ 0.125 µg/mL

Notebook entry, clinical isolate of Klebsiella pneumoniae assay: MIC of `CO/N=C(\C(=O)N[C@@H]1C(=O)N2C(C(=O)O)=C(COC(C)=O)CS[C@H]12)c1csc(N)n1` = ? > 8 µg/mL

* * *

For each entry below, report its MIC value.
- Test system: clinical isolate of Klebsiella pneumoniae
- experiment_notes: Antibiotic susceptibility test (AST), MIC calling by automated microscopy imaging of microbial biomass in a 336-well AST-disc
- Format: cell-based
- test_settings: Klebsiella pneumoniae, 5.5 h, replicate #2; K. pneumoniae recovered from spiked positive blood culture flask, adjusted to 5x10^5 CFU/ml in CAMBH, 35° C., up to 5.5 hours total AST time

Notebook entry, clinical isolate of Klebsiella pneumoniae assay: MIC of C[C@@H](O)[C@H]1C(=O)N2C(C(=O)O)=C(S[C@@H]3CN[C@H](C(=O)N(C)C)C3)[C@H](C)[C@H]12 [Meropenem] = ? ≤ 0.0625 µg/mL

Notebook entry, clinical isolate of Klebsiella pneumoniae assay: MIC of CO/N=C(\C(=O)N[C@@H]1C(=O)N2C(C(=O)O)=C(CSc3nc(=O)c(=O)[nH]n3C)CS[C@H]12)c1csc(N)n1 [Ceftriaxone] = ? > 8 µg/mL

Notebook entry, clinical isolate of Klebsiella pneumoniae assay: MIC of CC(C)(O/N=C(\C(=O)N[C@@H]1C(=O)N2C(C(=O)[O-])=C(C[n+]3ccccc3)CS[C@H]12)c1csc(N)n1)C(=O)O [Ceftazidime] = ? ≤ 0.125 µg/mL

Notebook entry, clinical isolate of Klebsiella pneumoniae assay: MIC of CO/N=C(\C(=O)N[C@@H]1C(=O)N2C(C(=O)O)=C(COC(C)=O)CS[C@H]12)c1csc(N)n1 [Cefotaxime] = ? > 8 µg/mL

Every entry's value here was drawn from patent US20210032674A1.
